System: 485176-168-R4-J1-PDC complex spheroid growth
Test: Anticancer human tumor 485176-168-R4-J1-PDC patient-derived pancreatic adenocarcinoma cell line growth inhibition [RAS]
Settings: second compound 0.0316 µM; first compound 3.16 µM; hits give low values
Source text: RAS pathway inhibitors in Combinations in Complex Spheroids A high-throughput screen of multi-cell type tumor spheroids was designed to identify active combinations of RAS pathway inhibitors and targeted small molecules. Complex spheroids include a stromal component modeled by human endothelial cells (HUVEC) and fibroblasts modeled by human mesenchymal stem cells (MSCs). […] Compounds. […] If the clinical Cmax for an agent had not been determined, the highest concentration tested was 10 microM. […]
Reported viability, T/C by item:
The reply should be a number in %, with the unit left off.

Form field: reported viability, T/C of CC(Nc1ccc2c(c1)OCCn1cc(N3C(=O)OCC3C(F)F)nc1-2)C(N)=O (stereo unspecified) + C#Cc1c(F)ccc2cc(O)cc(-c3ncc4c(N5CC6CCC(C5)N6)nc(OCC56CCCN5CC(F)C6)nc4c3F)c12
59.1

Please do the same for CC(=O)OC12COC1CC(O)C1(C)C(=O)C(O)C3=C(C)C(OC(=O)C(O)C(NC(=O)OC(C)(C)C)c4ccccc4)CC(O)(C(OC(=O)c4ccccc4)C21)C3(C)C (stereo unspecified) + C#Cc1c(F)ccc2cc(O)cc(-c3ncc4c(N5CC6CCC(C5)N6)nc(OCC56CCCN5CC(F)C6)nc4c3F)c12 as well.
18.5

Please do the same for C[C@@H](NC(=O)c1ncnc(N)c1Cl)c1ncc(C(=O)Nc2cc(C(F)(F)F)c(Cl)cn2)s1 + C#Cc1c(F)ccc2cc(O)cc(-c3ncc4c(N5CC6CCC(C5)N6)nc(OCC56CCCN5CC(F)C6)nc4c3F)c12 as well.
87.8

Please do the same for CC(=O)OC12COC1CC(O)C1(C)C(=O)C(O)C3=C(C)C(OC(=O)C(O)C(NC(=O)OC(C)(C)C)c4ccccc4)CC(O)(C(OC(=O)c4ccccc4)C21)C3(C)C (stereo unspecified) + C=CC(=O)N1CCN(c2nc(OCC3CCCN3C)nc3c(F)c(-c4nc(N)cc(C)c4C(F)(F)F)c(Cl)cc23)C(C)C1 as well.
13.3

Please do the same for CC(C)NCC(C(=O)N1CCN(c2ncnc3c2C(C)CC3O)CC1)c1ccc(Cl)cc1 (stereo unspecified) + C#Cc1c(F)ccc2cc(O)cc(-c3ncc4c(N5CC6CCC(C5)N6)nc(OCC56CCCN5CC(F)C6)nc4c3F)c12 as well.
47.3

Please do the same for NC1c2ccccc2OC12CCN(c1cnc3c(N4CCCc5ncccc54)n[nH]c3n1)CC2 (stereo unspecified) + C#Cc1c(F)ccc2cc(O)cc(-c3ncc4c(N5CC6CCC(C5)N6)nc(OCC56CCCN5CC(F)C6)nc4c3F)c12 as well.
75.3

* * *

tested on: 485176-168-R4-J1-PDC complex spheroid growth; experiment: Anticancer human tumor 485176-168-R4-J1-PDC cell line growth inhibition [RAS]; details: second compound 0.000949 µM; first compound 1 µM; hits give low values;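 further: spheroids exposed to compounds for seven days before readout; luminescence viability expressed relative to DMSO vehicle wells set as 100%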
assay_readout: viability, T/C (%)
The reply should be a number in %, with the unit left off.

CC(=O)OC12COC1CC(O)C1(C)C(=O)C(O)C3=C(C)C(OC(=O)C(O)C(NC(=O)OC(C)(C)C)c4ccccc4)CC(O)(C(OC(=O)c4ccccc4)C21)C3(C)C (centres undefined) + CCn1c(-c2cc(N3CCN(C)CC3)cnc2C(C)OC)c2c3cc(ccc31)-c1csc(n1)CC(NC(=O)C1CC1C)C(=O)N1CCCC(N1)C(=O)OCC(C)(C)C2    13.9
C=CC(=O)Nc1cc(Nc2nccc(-c3cn(C)c4ccccc34)n2)c(OC)cc1N(C)CCN(C)C + CCn1c(-c2cccnc2C(C)OC)c2c3cc(ccc31)N1CCOC(CC(NC(=O)C(C(C)C)N(C)C(=O)C3(F)CCN(C(=O)C#CC(C)(C)N(C)C)CC3)C(=O)N3CCCC(N3)C(=O)OCC(C)(C)C2)C1    72
NC1c2ccccc2OC12CCN(c1cnc3c(N4CCCc5ncccc54)n[nH]c3n1)CC2 (centres undefined) + CCn1c(-c2cccnc2C(C)OC)c2c3cc(ccc31)N1CCOC(CC(NC(=O)C(C(C)C)N(C)C(=O)C3(F)CCN(C(=O)C#CC(C)(C)N(C)C)CC3)C(=O)N3CCCC(N3)C(=O)OCC(C)(C)C2)C1    85.9

Now examine the next entry.
Request body: readout viability, T/C, system 485176-168-R4-J1-PDC complex spheroid growth, query CCC(CC)c1cc(NC2CCC(N)C2)n2nccc2n1 (centres undefined) + CCn1c(-c2cc(N3CCN(C)CC3)cnc2C(C)OC)c2c3cc(ccc31)-c1csc(n1)CC(NC(=O)C1CC1C)C(=O)N1CCCC(N1)C(=O)OCC(C)(C)C2 . Return the value.
55.9

* * *

tested on: 485176-168-R4-J1-PDC complex spheroid growth; test: Anticancer human tumor 485176-168-R4-J1-PDC cell line growth inhibition [RAS]; settings: second compound 0.316 µM; first compound 0.0316 µM; hits give low values;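 further: spheroids exposed to compounds for seven days before readout; luminescence viability expressed relative to DMSO vehicle wells set as 100%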
assay_readout: viability, T/C (%)
The reply should be a number in %, with the unit left off.

O=C(c1ccc(F)c(F)c1Nc1ccc(I)cc1F)N1CC(O)([C@@H]2CCCCN2)C1 + C=CC(=O)N1CCN(c2nc(OCC3CCCN3C)nc3c(F)c(-c4nc(N)cc(C)c4C(F)(F)F)c(Cl)cc23)C(C)C1    84.1
CC1(O)CCCC1n1c(=O)c(C(F)F)cc2cnc(NC3CCN(S(C)(=O)=O)CC3)nc21 (stereo not given) + C#Cc1c(F)ccc2cc(O)cc(-c3ncc4c(N5CC6CCC(C5)N6)nc(OCC56CCCN5CC(F)C6)nc4c3F)c12    89.9
C[C@@H](NC(=O)c1ncnc(N)c1Cl)c1ncc(C(=O)Nc2cc(C(F)(F)F)c(Cl)cn2)s1 + C#Cc1c(F)ccc2cc(O)cc(-c3ncc4c(N5CC6CCC(C5)N6)nc(OCC56CCCN5CC(F)C6)nc4c3F)c12    97.2
CC1(O)CCCC1n1c(=O)c(C(F)F)cc2cnc(NC3CCN(S(C)(=O)=O)CC3)nc21 (stereo not given) + C=CC(=O)N1CCN(c2nc(OCC3CCCN3C)nc3c(F)c(-c4nc(N)cc(C)c4C(F)(F)F)c(Cl)cc23)C(C)C1    103

Now examine the next entry.
Form field: reported viability, T/C of C[C@@H](NC(=O)c1ncnc(N)c1Cl)c1ncc(C(=O)Nc2cc(C(F)(F)F)c(Cl)cn2)s1 + C=CC(=O)N1CCN(c2nc(OCC3CCCN3C)nc3c(F)c(-c4nc(N)cc(C)c4C(F)(F)F)c(Cl)cc23)C(C)C1
108

* * *

test system: 485176-168-R4-J1-PDC complex spheroid growth; assay: Anticancer human tumor 485176-168-R4-J1-PDC cell line growth inhibition [RAS]; settings: second compound 0.1 µM; first compound 0.03 µM; hits give low values;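 further: spheroids exposed to compounds for seven days before readout; luminescence viability expressed relative to DMSO vehicle wells set as 100%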
assay_readout: viability, T/C (%)
The reply should be a number in %, with the unit left off.

Known results for compounds:
CCc1c2c(nc3ccc(O)cc13)-c1cc3c(c(=O)n1C2)COC(=O)[C@]3(O)CC + C=CC(=O)N1CCN(c2nc(OCC3CCCN3C)nc3c(F)c(-c4nc(N)cc(C)c4C(F)(F)F)c(Cl)cc23)C(C)C1    34.5
CC1(C)CCC(Nc2ncc(C(F)(F)F)c(-c3c[nH]c4c(P(C)(C)=O)c(C#N)ccc34)n2)CN1 (centres undefined) + C#Cc1c(F)ccc2cc(O)cc(-c3ncc4c(N5CC6CCC(C5)N6)nc(OCC56CCCN5CC(F)C6)nc4c3F)c12    59.7
CCc1c2c(nc3ccc(O)cc13)-c1cc3c(c(=O)n1C2)COC(=O)[C@]3(O)CC + C#Cc1c(F)ccc2cc(O)cc(-c3ncc4c(N5CC6CCC(C5)N6)nc(OCC56CCCN5CC(F)C6)nc4c3F)c12    32.2

Now examine the next entry.
Form field: reported viability, T/C of CC1(C)CCC(Nc2ncc(C(F)(F)F)c(-c3c[nH]c4c(P(C)(C)=O)c(C#N)ccc34)n2)CN1 (centres undefined) + C=CC(=O)N1CCN(c2nc(OCC3CCCN3C)nc3c(F)c(-c4nc(N)cc(C)c4C(F)(F)F)c(Cl)cc23)C(C)C1
63.8

* * *

tested on: 485176-168-R4-J1-PDC complex spheroid growth; experiment: Anticancer human tumor 485176-168-R4-J1-PDC cell line growth inhibition [RAS]; settings: second compound 0.00949 µM; first compound 0.0949 µM; hits give low values;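 further: spheroids exposed to compounds for seven days before readout; luminescence viability expressed relative to DMSO vehicle wells set as 100%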
assay_readout: viability, T/C

CC1(C)CCC(Nc2ncc(C(F)(F)F)c(-c3c[nH]c4c(P(C)(C)=O)c(C#N)ccc34)n2)CN1 (centres undefined) + CCn1c(-c2cccnc2C(C)OC)c2c3cc(ccc31)N1CCOC(CC(NC(=O)C(C(C)C)N(C)C(=O)C3(F)CCN(C(=O)C#CC(C)(C)N(C)C)CC3)C(=O)N3CCCC(N3)C(=O)OCC(C)(C)C2)C1    50.5%
CCc1c2c(nc3ccc(O)cc13)-c1cc3c(c(=O)n1C2)COC(=O)[C@]3(O)CC + CCn1c(-c2cccnc2C(C)OC)c2c3cc(ccc31)N1CCOC(CC(NC(=O)C(C(C)C)N(C)C(=O)C3(F)CCN(C(=O)C#CC(C)(C)N(C)C)CC3)C(=O)N3CCCC(N3)C(=O)OCC(C)(C)C2)C1    10.5%
CC1(C)CCC(Nc2ncc(C(F)(F)F)c(-c3c[nH]c4c(P(C)(C)=O)c(C#N)ccc34)n2)CN1 (centres undefined) + CCn1c(-c2cc(N3CCN(C)CC3)cnc2C(C)OC)c2c3cc(ccc31)-c1csc(n1)CC(NC(=O)C1CC1C)C(=O)N1CCCC(N1)C(=O)OCC(C)(C)C2    51.5%

Now examine the next entry.
Request body: readout viability, T/C, system 485176-168-R4-J1-PDC complex spheroid growth, query CCc1c2c(nc3ccc(O)cc13)-c1cc3c(c(=O)n1C2)COC(=O)[C@]3(O)CC + CCn1c(-c2cc(N3CCN(C)CC3)cnc2C(C)OC)c2c3cc(ccc31)-c1csc(n1)CC(NC(=O)C1CC1C)C(=O)N1CCCC(N1)C(=O)OCC(C)(C)C2 . Return the value.
16.2%
